All figures here come from paper PMC9822402.

MEASUREMENT TARGET: hCA II (Homo sapiens, UniProt P00918)
Construct: gene CA2; recombinant, obtained in-house
EXPERIMENT SUMMARY: stopped-flow CO2 hydrase assay
Type: biochemical
SETTINGS: read-out: KI (nM) ^1 / CAII
MEASUREMENT KIND: Ki (nM)

Examples with their reported Ki follow.
COMPOUND: COc1cccc(/C=N/NC(=O)C2CCN(C(=O)c3ccc(S(N)(=O)=O)cc3)CC2)c1 [compound 8]
MEASUREMENT KIND: Ki
READOUT VALUE: 44.3

COMPOUND: COc1ccc(/C=N/NC(=O)C2CCN(C(=O)c3ccc(S(N)(=O)=O)cc3)CC2)cc1OC [compound 11]
MEASUREMENT KIND: Ki
READOUT VALUE: 55.1

COMPOUND: COc1ccc(OC)c(/C=N/NC(=O)C2CCN(C(=O)c3ccc(S(N)(=O)=O)cc3)CC2)c1 [compound 12]
MEASUREMENT KIND: Ki
READOUT VALUE: 1.75

COMPOUND: NS(=O)(=O)c1ccc(C(=O)N2CCC(C(=O)N/N=C/c3c(Cl)cccc3Cl)CC2)cc1 [compound 27]
MEASUREMENT KIND: Ki
READOUT VALUE: 3.57

COMPOUND: COc1ccccc1/C=N/NC(=O)C1CCN(C(=O)c2ccc(S(N)(=O)=O)cc2)CC1 [compound 7]
MEASUREMENT KIND: Ki
READOUT VALUE: 2.94

[P] COc1ccc(/C=N/NC(=O)C2CCN(C(=O)c3ccc(S(N)(=O)=O)cc3)CC2)cc1 [compound 9]
[Q] NS(=O)(=O)c1ccc(C(=O)N2CCC(C(=O)N/N=C/c3ccc4ccccc4c3)CC2)cc1 [compound 16]
[R] COc1ccc(/C=N/NC(=O)C2CCN(C(=O)c3ccc(S(N)(=O)=O)cc3)CC2)c(Br)c1OC [compound 15]
Form: Sort by [Ki] Order [ ascending ] Quick reminder: the answer is the labels in the order asked.
P, R, Q
(P: 4.48 nM, R: 65.5 nM, Q: 209 nM)

[1] NS(=O)(=O)c1ccc(C(=O)N2CCC(C(=O)N/N=C/c3cc(Cl)ccc3Cl)CC2)cc1 [compound 26]
[2] Cc1ccc(/C=N/NC(=O)C2CCN(C(=O)c3ccc(S(N)(=O)=O)cc3)CC2)cc1 [compound 6]
Could you please tell me which of these two has the higher Ki: 1 or 2 ? # reply format: chosen label
2
(2: 5.62 nM, 1: 3.64 nM)

[a] NS(=O)(=O)c1ccc(C(=O)N2CCC(C(=O)N/N=C/c3cccc([N+](=O)[O-])c3)CC2)cc1 [compound 21]
[b] COc1c(/C=N/NC(=O)C2CCN(C(=O)c3ccc(S(N)(=O)=O)cc3)CC2)ccc2ccccc12 [compound 17]
Lab note: record which item had the higher Ki, a or b . Reply briefly: the label of your chosen item.
a
(a: 46.2 nM, b: 25.2 nM)

[I] NS(=O)(=O)c1ccc(C(=O)N2CCC(C(=O)N/N=C/c3ccc(Cl)cc3Cl)CC2)cc1 [compound 25]
[II] COc1cc(/C=N/NC(=O)C2CCN(C(=O)c3ccc(S(N)(=O)=O)cc3)CC2)cc(OC)c1OC [compound 14]
Select one. Lower Ki: I or II Pick one; state its label.
I
(I: 6.65 nM, II: 67.6 nM)
